Parameter: IC50. Scope: all listed entries.
molecular target: Vps34 (Homo sapiens); test: Kinase Glo Luminescent Kinase Assay (Kglo), assay C; format: biochemical; settings: read-out: Assay C VPS34 IC50

INSERT INTO measurements (compound, result) VALUES
  ('Cc1ccc(S(=O)(=O)NC[C@H]2C[C@@H](O)C2)cc1-c1cnc(N)c(-n2cncn2)n1 [Example 72]', '> 9.1 µM'),
  ('CNCCNS(=O)(=O)c1ccc(C)c(-c2cnc(N)c(-c3ccnc(C)c3)n2)c1 [Example 129.33]', '> 9.1 µM'),
  ('Cc1ccc(S(=O)(=O)NCCC(C)(C)O)cc1-c1cnc(N)c(-c2csc(CN3CCOCC3)c2)n1 [Example 30]', '> 9.1 µM'),
  ('Cc1cc(-c2nc(-c3cc(S(=O)(=O)NCC4(O)COC4)ccc3C)cnc2N)ccn1 [Example 129.32]', '> 9.1 µM'),
  ('Cc1ccc(S(=O)(=O)NCC(C)(C)O)cc1-c1cnc(N)c(-c2cnn(C)c2)n1 [Example 46.2]', '> 10 µM');

What is its IC50 for Vps34 (Homo sapiens)? Entry: Cc1ccc(S(=O)(=O)N2CC(CO)C2)cc1-c1cnc(N)c(-n2cncn2)n1 [Example 127.45]
> 9.1 µM

// map Cc1ccc(S(=O)(=O)NCC2COC2)cc1-c1cnc(N)c(-n2cncn2)n1 [Example 131] to recorded IC50 (system: Vps34 (Homo sapiens))
4.3 µM

Could you share what IC50 was measured for Cc1noc(-c2nc(-c3cc(S(=O)(=O)NCCC(C)(C)O)ccc3C)cnc2N)n1 [Example 3] , tested on Vps34 (Homo sapiens)?
> 9.1 µM

// lookup IC50 | system=Vps34 (Homo sapiens) | key= Cc1ccc(S(=O)(=O)NCCC(C)(C)O)cc1-c1cnc(N)c(-c2cccnc2)n1 [Example 119.5]
> 9.1 µM

# value lookup — system Vps34 (Homo sapiens), readout IC50, item Cc1ccc(S(=O)(=O)NCC2COCCN2C)cc1-c1cnc(N)c(-c2cn(C)nc2C)n1 (centres unmarked) [Example 128.2]
> 10 µM

Given the entry Cc1cc(F)c(S(=O)(=O)NCC(C)(C)O)cc1-c1cnc(N)c(-n2cncn2)n1 [Example 122] , what IC50 was observed with Vps34 (Homo sapiens)?
> 10 µM

====

biological target: PI 3-kinase beta (Homo sapiens); test: Kinase Glo Luminescent Kinase Assay (Kglo), assay B; type: biochemical; conditions: read-out: Assay B PI3Kβ IC50
List of IC50 values.

Look at this compound and give its reported IC50. COC(C)(C)CNS(=O)(=O)c1ccc(C)c(-c2cnc(N)c(-c3ccnc(C)c3)n2)c1
> 9.1 µM

Fill in: IC50 of Cc1cc(-c2nc(-c3cc(S(=O)(=O)NC4CCOCC4)ccc3C)cnc2N)ccn1 is ___
> 9.1 µM

For Cc1ccc(S(=O)(=O)NCCC(C)(C)O)cc1-c1cnc(N)c(-n2cnc(C(C)C)n2)n1 , what is its reported IC50?
> 9.1 µM

====

pIC50 values by entry
biological target: PI 3-kinase beta (Homo sapiens, UniProt P42338); assay: Kinase Glo Luminescent Kinase Assay (Kglo), assay B; assay type: biochemical; conditions: read-out: Assay B PI3Kβ IC50
Sequence (P42338 whole entry): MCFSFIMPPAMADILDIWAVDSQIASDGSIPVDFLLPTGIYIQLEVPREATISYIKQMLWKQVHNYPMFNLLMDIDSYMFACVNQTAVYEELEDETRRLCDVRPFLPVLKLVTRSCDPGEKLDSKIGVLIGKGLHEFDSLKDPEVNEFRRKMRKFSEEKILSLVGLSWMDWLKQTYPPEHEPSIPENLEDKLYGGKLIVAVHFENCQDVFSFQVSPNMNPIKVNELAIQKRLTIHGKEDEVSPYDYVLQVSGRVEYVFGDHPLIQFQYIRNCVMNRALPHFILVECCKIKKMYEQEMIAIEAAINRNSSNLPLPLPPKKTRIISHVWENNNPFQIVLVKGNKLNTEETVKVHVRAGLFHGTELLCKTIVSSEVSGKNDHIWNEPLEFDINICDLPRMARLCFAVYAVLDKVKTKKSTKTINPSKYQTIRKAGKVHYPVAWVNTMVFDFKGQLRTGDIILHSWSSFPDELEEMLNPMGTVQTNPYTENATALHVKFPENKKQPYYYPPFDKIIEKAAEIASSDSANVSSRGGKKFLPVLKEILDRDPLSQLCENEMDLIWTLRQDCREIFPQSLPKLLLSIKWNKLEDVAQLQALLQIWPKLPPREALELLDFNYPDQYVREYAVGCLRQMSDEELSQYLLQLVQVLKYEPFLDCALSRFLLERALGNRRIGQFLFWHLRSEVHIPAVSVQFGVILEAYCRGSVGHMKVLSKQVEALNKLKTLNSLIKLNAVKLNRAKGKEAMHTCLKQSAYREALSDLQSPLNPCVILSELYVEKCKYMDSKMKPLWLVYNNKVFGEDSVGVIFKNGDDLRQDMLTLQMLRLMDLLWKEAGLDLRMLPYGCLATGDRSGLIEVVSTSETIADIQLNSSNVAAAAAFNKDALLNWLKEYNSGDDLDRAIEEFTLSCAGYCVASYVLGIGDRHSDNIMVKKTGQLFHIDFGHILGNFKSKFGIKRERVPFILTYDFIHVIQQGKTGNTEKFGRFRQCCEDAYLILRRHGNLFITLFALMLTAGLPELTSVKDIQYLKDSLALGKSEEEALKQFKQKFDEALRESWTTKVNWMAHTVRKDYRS
Sequence (P27986 461-568 partner): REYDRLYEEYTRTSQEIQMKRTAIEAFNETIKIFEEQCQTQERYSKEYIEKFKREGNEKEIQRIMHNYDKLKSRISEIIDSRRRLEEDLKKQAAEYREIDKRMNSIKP
pIC50: −log10 of the molar value.

Worked examples, 2 compounds total:
INSERT INTO results (compound, measured_metric, result) VALUES
  ('Cc1ccc(S(=O)(=O)NC[C@H]2C[C@@H](O)C2)cc1-c1cnc(N)c(-c2nc(C3CC3)no2)n1', 'pIC50', '< 5.04'),
  ('Cc1cc(-c2nc(-c3cc(S(=O)(=O)NCC4CCCCO4)ccc3C)cnc2N)ccn1 (stereo not drawn)', 'pIC50', '< 5.04');

Proceed to the following item.
What value of measured pIC50 is listed for Cc1ccc(S(=O)(=O)NCCC(C)(C)O)cc1-c1cnc(N)c(-c2ccc(OC3CCOCC3)nc2)n1 ?
< 5.04

====

Consider the following molecules and their measured IC50 readings.
target: Vps34 (Homo sapiens, UniProt Q8NEB9); test: Kinase Glo Luminescent Kinase Assay (Kglo), assay C; format: biochemical; conditions: read-out: Assay C VPS34 IC50
Sequence (Q8NEB9 whole entry, species assumed): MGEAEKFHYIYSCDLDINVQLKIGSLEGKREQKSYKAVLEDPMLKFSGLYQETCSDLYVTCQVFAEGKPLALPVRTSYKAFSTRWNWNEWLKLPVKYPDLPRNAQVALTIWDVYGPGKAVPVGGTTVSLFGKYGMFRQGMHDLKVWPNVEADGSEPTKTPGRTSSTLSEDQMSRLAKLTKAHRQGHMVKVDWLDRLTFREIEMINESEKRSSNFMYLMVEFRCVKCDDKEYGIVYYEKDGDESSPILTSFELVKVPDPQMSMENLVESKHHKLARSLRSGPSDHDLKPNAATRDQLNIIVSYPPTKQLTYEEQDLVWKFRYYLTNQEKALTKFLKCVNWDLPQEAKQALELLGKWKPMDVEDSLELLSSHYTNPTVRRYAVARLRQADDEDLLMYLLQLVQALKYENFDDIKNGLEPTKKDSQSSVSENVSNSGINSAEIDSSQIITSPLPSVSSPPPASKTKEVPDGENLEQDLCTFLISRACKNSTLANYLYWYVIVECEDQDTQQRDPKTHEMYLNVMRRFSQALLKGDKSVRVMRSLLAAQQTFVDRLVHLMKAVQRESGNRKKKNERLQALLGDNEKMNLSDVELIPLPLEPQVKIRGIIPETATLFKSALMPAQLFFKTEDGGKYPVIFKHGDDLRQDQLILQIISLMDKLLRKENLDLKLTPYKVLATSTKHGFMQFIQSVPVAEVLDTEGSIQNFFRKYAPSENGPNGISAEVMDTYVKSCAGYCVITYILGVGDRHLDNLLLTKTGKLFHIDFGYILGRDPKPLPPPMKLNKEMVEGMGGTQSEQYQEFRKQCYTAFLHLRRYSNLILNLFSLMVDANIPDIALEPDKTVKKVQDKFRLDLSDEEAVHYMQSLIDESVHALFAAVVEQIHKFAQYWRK

Check out these entries, answers already filled in.
INSERT INTO measurements (molecule, result) VALUES
  ('Cc1ccc(S(=O)(=O)NOC(C)C)cc1-c1cnc(N)c(-n2cncn2)n1 [Example 112.3]', '> 10 µM'),
  ('Cc1ccc(S(=O)(=O)NCCC(C)(C)O)cc1-c1cnc(N)c(-n2cnc(C3CC3)n2)n1 [Example 26]', '> 9.1 µM');

The record that follows has no IC50 shown yet.
Tell me the measured IC50 of Cc1cc(-c2nc(-c3cc(S(=O)(=O)NCCC(C)(C)O)ccc3C)cnc2N)n(C)n1 [Example 119.36] , please.
> 9.1 µM

====

target: PI 3-kinase delta (Homo sapiens); experiment: Cellular assay J1, p-Akt (S473) in Rat-1 cells, Surefire format; format: cell-based; settings: non-asterisked data: version J1 (Surefire format), Rat-1 cells; read-out: Assay J PI3Kδ IC50
Sequence (O00329 whole entry): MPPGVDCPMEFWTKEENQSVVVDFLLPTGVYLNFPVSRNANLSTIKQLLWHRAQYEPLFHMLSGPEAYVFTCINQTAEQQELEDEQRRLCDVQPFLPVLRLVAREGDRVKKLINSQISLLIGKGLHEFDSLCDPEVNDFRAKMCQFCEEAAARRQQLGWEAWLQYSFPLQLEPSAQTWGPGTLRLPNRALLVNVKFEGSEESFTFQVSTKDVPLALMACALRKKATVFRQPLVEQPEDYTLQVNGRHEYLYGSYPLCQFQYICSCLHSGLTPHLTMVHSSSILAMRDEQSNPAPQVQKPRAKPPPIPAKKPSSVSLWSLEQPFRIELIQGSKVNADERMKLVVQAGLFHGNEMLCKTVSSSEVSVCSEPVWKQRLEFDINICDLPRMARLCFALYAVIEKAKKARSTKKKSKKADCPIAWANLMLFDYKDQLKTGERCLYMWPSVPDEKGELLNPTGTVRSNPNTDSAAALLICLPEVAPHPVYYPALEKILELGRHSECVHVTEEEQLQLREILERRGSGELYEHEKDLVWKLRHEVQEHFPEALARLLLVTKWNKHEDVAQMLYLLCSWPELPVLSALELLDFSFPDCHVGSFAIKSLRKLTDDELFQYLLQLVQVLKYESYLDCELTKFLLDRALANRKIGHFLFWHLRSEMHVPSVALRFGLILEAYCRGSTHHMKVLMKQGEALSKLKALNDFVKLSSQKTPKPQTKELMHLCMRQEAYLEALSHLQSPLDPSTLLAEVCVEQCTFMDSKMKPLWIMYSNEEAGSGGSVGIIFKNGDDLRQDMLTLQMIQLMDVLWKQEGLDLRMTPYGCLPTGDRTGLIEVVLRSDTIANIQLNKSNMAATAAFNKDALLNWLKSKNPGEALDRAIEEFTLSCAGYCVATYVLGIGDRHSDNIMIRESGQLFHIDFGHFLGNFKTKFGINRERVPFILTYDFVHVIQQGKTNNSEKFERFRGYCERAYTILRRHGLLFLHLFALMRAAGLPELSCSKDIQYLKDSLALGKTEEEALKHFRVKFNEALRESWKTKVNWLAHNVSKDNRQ
Sequence (Q63787 whole entry partner): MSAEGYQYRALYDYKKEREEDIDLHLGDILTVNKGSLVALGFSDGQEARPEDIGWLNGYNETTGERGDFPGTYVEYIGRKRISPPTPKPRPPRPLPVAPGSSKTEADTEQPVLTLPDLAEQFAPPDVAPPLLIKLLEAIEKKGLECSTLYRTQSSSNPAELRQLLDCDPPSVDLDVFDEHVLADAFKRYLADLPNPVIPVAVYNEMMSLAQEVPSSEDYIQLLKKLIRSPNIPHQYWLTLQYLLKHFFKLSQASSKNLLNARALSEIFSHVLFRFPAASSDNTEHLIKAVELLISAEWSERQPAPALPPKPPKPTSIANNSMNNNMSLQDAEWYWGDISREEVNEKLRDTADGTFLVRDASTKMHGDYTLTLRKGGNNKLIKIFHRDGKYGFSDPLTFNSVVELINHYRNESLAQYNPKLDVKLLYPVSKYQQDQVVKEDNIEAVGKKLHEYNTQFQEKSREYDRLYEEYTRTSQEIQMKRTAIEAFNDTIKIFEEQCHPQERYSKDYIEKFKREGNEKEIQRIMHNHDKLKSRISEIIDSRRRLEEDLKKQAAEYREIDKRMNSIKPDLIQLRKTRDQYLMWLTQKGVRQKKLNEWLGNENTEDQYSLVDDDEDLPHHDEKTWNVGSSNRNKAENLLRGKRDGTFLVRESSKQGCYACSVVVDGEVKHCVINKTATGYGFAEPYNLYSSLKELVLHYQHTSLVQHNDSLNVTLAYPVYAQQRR
measured_metric: IC50 (µM)

INSERT INTO results (compound, measured_metric, quantitative_readout) VALUES
  ('CCCc1noc(-c2nc(-c3cc(S(=O)(=O)N[C@H]4CC[C@H](O)CC4)ccc3C)cnc2N)n1 [Example 140]', 'IC50', 0.84),
  ('Cc1ccc(S(=O)(=O)NC[C@H]2C[C@@H](O)C2)cc1-c1cnc(N)c(-n2cncn2)n1 [Example 72]', 'IC50', 2.64),
  ('Cc1ccc(S(=O)(=O)NCC(C)(C)O)cc1-c1cnc(N)c(-c2nn(C)nc2C)n1 [Example 19]', 'IC50', 0.07),
  ('CCc1noc(-c2nc(-c3cc(S(=O)(=O)N[C@H]4CC[C@H](O)CC4)ccc3C)cnc2N)n1 [Example 139]', 'IC50', 0.97);

A = CCn1cc(-c2nc(-c3cc(S(=O)(=O)NCCC(C)(C)O)ccc3C)cnc2N)cn1 [Example 119.34]
B = Cc1cc(-c2nc(-c3cc(S(=O)(=O)NCCC(C)(C)O)ccc3C)cnc2N)ccn1 [Example 119.28]
Select one: A or B . Criterion: greater recorded IC50. # reply format: chosen label
B
(B: 2.15 µM, A: 1.27 µM)

====

target: UniProt P42345; assay: Lanthascreen kinase binding assay, assay G; details: read-out: Assay G mTOR IC50
measured_metric: IC50

Use these answered entries as a reference point.
INSERT INTO assay_data (molecule, result) VALUES
  ('Cc1nnc(-c2nc(-c3cc(S(=O)(=O)NCC(C)(C)O)ccc3C)cnc2N)o1 [Example 90]', '> 10 µM'),
  ('Cc1ccc(S(=O)(=O)NCCC(C)(C)O)cc1-c1cnc(N)c(-c2cnn(C(C)C)c2)n1 [Example 119.31]', '2.23 µM'),
  ('Cc1ccc(S(=O)(=O)NCCC(C)(C)O)cc1-c1cnc(N)c(-c2cnn(CC(F)(F)F)c2)n1 [Example 130]', '5.11 µM'),
  ('CCn1ncc(-c2nc(-c3cc(S(=O)(=O)NCC(C)(C)O)ccc3C)cnc2N)n1 [Example 82]', '> 10 µM');

// IC50 lookup, key: Cc1ccc(S(=O)(=O)NCCCF)cc1-c1cnc(N)c(-n2cncn2)n1 [Example 127.29]
> 10 µM

Need IC50 of Cc1ccc(S(=O)(=O)N2CC3(CC(O)C3)C2)cc1-c1cnc(N)c(-n2cncn2)n1 [Example 101] , thanks.
> 10 µM

Suppose we examine the molecule Cc1cc(-c2nc(-c3cc(S(=O)(=O)N[C@H]4CCC[C@@H]4N)ccc3C)cnc2N)ccn1 [Example 129.38] ; what IC50 value has been reported?
> 9.1 µM

Item COc1ncccc1-c1nc(-c2cc(S(=O)(=O)NCCC(C)(C)O)ccc2C)cnc1N [Example 119.4] has what recorded IC50?
> 9.1 µM

====

target: UniProtKB Q8NEB9; assay: Kinase Glo Luminescent Kinase Assay (Kglo), assay C; assay type: biochemical; settings: read-out: Assay C VPS34 IC50
pIC50: −log10 of the molar value.
Reported pIC50 values for a set of molecules

Recorded results for 3 molecules are shown here.
INSERT INTO measurements (record_smiles, result) VALUES
  ('Cc1csc(-c2nc(-c3cc(S(=O)(=O)NCC(C)(C)O)ccc3C)cnc2N)n1', '< 5.00'),
  ('Cc1ncc(-c2nc(-c3cc(S(=O)(=O)NCCCO)c(F)cc3C)cnc2N)s1', 6.33),
  ('Cc1ccc(S(=O)(=O)NCCC(C)(C)O)cc1-c1cnc(N)c(-c2ccc(CO)s2)n1', '< 5.04');

GET /values?readout=pIC50&item= Cc1ccc(S(=O)(=O)N[C@H]2CC[C@H](O)CC2)cc1-c1cnc(N)c(-c2nc(C(C)C)no2)n1
< 5.04

Bench note: what pIC50 did Cc1cc(-c2nc(-c3cc(S(=O)(=O)NC[C@@](C)(O)C(F)(F)F)ccc3C)cnc2N)ccn1 show?
< 5.04

Could you share which pIC50 value was measured for Cc1ccc(S(=O)(=O)NCC2(CO)CCC2)cc1-c1cnc(N)c(-n2cncn2)n1 ?
< 5.00

What value of pIC50 has been reported for the following molecule? Cc1ccc(S(=O)(=O)N2CCC(F)CC2)cc1-c1cnc(N)c(-n2cncn2)n1
< 5.00

Query (molecule): Cc1ncc(-c2nc(-c3cc(S(=O)(=O)NCCO)ccc3C)cnc2N)s1 ; field requested: pIC50
5.96

Endpoint output: pIC50 of Cc1ccc(S(=O)(=O)NOCCN(C)C)cc1-c1cnc(N)c(-n2cncn2)n1 . Value?
< 5.00

Reported pIC50, molecule Cc1cc(-c2nc(-c3cc(S(=O)(=O)NCCN(C)C)ccc3C)cnc2N)ccn1 : ____
< 5.04

Item CC(C)(O)CNS(=O)(=O)c1cccc(-c2cnc(N)c(-n3cncn3)n2)c1 has what recorded pIC50?
< 5.00

Need pIC50, item Cc1ccc(S(=O)(=O)NCC(C)(C)O)cc1-c1cnc(N)c(-c2ccoc2)n1
< 5.02

Dear colleague, I am looking for the recorded pIC50 of the following molecule: Cc1ccc(S(=O)(=O)NC[C@](C)(O)C(F)(F)F)cc1-c1cnc(N)c(-n2cncn2)n1
< 5.00
